testedSystem: recombinant human GAA (acid alpha-glucosidase) (Homo sapiens)
assaySummary: Acid alpha-glucosidase (GAA) assay (4-methylumbelliferyl-alpha-D-pyranoside substrate, fluorescence)
property: pIC50
Just so you know, pIC50 here is -log10 of the concentration in molar units; reply with that number alone.

See these solved cases before continuing.
{"columns": ["smilesStr", "testedSystem", "pIC50"],
 "data": [
  ["Cc1cc(NCc2cccc(CN3C[C@H](O)[C@@H](O)[C@H](O)[C@H]3CO)n2)cc(-c2ncccn2)c1", "recombinant human GAA (acid alpha-glucosidase) (Homo sapiens)", 5.96],
  ["COc1ccc(C#CCCCCCN2C[C@H](O)[C@@H](O)[C@H](O)[C@H]2CO)cc1", "recombinant human GAA (acid alpha-glucosidase) (Homo sapiens)", 6.07],
  ["Cc1cc(NCc2ccc(CN3C[C@H](O)[C@@H](O)[C@H](O)[C@H]3CO)cc2)cc(-c2ccc[nH]2)c1", "recombinant human GAA (acid alpha-glucosidase) (Homo sapiens)", 6.54],
  ["OC[C@@H]1[C@@H](O)[C@H](O)[C@@H](O)CN1Cc1cccc(CNc2ccc(C3=COCCO3)cc2)c1", "recombinant human GAA (acid alpha-glucosidase) (Homo sapiens)", 5.98],
  ["[N-]=[N+]=Nc1ccc(NCCc2cc(Br)cc(CCN3C[C@H](O)[C@@H](O)[C@H](O)[C@H]3CO)c2)c([N+](=O)[O-])c1", "recombinant human GAA (acid alpha-glucosidase) (Homo sapiens)", 5.68],
  ["COc1cc(NCCCCCCN2C[C@H](O)[C@@H](O)[C@H](O)[C@H]2CO)cc(-c2ccccc2)c1", "recombinant human GAA (acid alpha-glucosidase) (Homo sapiens)", 7.35]
]}

Asked: Entry under review: OC[C@@H]1[C@@H](O)[C@H](O)[C@@H](O)CN1CCCCCCNc1cc(C2CC2)cc(N2CCOCC2)c1 . Reported pIC50?
Given back: 6.91

Asked: // query: O=[N+]([O-])c1cc(-c2ncccn2)ccc1NCCc1ccc(CCN2C[C@H](O)[C@@H](O)[C@H](O)[C@H]2CO)cc1
Given back: 7.70

Asked: // query: CN(C)Cc1ccc(NCCCCCCN2C[C@H](O)[C@@H](O)[C@H](O)[C@H]2CO)c(C#N)c1
Given back: 7.14

* * *

testedSystem: rat sucrase (partially purified alpha-glucosidase from intestinal rat powder) (Rattus norvegicus)
Sequence (P23739 whole entry): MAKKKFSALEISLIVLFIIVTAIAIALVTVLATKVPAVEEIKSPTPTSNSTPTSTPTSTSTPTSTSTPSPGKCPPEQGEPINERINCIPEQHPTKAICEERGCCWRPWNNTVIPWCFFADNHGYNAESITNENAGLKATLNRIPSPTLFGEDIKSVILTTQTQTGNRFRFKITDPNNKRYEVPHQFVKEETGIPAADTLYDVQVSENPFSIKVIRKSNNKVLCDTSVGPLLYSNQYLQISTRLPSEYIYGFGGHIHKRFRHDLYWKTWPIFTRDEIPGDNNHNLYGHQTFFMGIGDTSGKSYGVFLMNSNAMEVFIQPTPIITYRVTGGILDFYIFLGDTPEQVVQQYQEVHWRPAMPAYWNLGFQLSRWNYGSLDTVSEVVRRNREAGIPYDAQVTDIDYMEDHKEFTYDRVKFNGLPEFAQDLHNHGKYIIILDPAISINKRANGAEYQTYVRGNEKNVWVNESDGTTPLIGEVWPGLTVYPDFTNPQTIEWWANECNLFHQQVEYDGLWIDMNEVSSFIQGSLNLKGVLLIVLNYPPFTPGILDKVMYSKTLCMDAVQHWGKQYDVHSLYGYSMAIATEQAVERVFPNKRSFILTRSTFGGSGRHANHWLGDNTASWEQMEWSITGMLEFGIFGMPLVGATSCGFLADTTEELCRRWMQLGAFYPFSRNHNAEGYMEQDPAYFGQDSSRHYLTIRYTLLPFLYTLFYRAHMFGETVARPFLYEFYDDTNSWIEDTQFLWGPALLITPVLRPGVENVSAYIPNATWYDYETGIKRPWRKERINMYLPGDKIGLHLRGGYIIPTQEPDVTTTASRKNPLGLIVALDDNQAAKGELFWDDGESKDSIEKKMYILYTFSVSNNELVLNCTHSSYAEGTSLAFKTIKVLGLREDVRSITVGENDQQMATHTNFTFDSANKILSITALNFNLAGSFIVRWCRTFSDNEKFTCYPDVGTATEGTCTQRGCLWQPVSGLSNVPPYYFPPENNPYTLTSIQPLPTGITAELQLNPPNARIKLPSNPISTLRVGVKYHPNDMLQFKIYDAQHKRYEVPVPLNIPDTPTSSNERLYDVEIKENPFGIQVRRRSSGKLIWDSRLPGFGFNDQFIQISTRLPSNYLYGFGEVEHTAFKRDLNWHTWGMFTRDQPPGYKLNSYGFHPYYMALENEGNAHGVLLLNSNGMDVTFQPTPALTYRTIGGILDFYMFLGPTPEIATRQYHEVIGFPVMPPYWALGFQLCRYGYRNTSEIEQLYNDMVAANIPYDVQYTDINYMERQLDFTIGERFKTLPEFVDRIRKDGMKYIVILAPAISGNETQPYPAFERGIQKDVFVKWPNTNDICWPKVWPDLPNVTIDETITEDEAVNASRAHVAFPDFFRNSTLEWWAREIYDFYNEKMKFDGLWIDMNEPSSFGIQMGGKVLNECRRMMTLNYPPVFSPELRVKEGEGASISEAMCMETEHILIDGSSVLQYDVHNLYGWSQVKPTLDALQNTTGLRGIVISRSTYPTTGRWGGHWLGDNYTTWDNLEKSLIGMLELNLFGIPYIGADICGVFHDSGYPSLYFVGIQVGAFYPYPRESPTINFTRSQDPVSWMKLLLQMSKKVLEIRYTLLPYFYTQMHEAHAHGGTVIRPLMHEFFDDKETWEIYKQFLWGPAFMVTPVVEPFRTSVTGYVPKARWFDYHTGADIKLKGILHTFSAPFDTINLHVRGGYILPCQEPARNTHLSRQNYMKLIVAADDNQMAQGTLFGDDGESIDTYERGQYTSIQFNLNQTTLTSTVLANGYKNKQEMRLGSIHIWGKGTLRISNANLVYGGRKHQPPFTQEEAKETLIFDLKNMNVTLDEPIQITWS
Collected pIC50 values appear next to each entry.
Just so you know, pIC50 here is -log10 of the concentration in molar units; reply with that number alone.

Asked: Entry under review: N#Cc1cc(NCc2cccc(CN3C[C@H](O)[C@@H](O)[C@H](O)[C@H]3CO)c2)cc(N2CCOCC2)c1 [Compound 1042] . Reported pIC50?
Given back: 6.79

* * *

testedSystem: recombinant human GAA (acid alpha-glucosidase) (Homo sapiens, UniProt P10253)
assaySummary: Acid alpha-glucosidase (GAA) assay (4-methylumbelliferyl-alpha-D-pyranoside substrate, fluorescence)
pIC50: −log10 of the molar value.
Label True for high-side pIC50 (at or above 6) and False for low-side pIC50 (below it).

{"columns": ["smilesStr", "categoryLabel"],
 "data": [
  ["O=Cc1cc(-c2ncccn2)ccc1NCCCCCCN1C[C@H](O)[C@@H](O)[C@H](O)[C@H]1CO", "True"],
  ["OC[C@@H]1[C@@H](O)[C@H](O)[C@@H](O)CN1Cc1ccc(CNc2ccc(N3CCOCC3)cc2)cc1", "True"],
  ["COc1ccc(-c2ccc(CCCN3C[C@H](O)[C@@H](O)[C@H](O)[C@H]3CO)cc2)cc1", "True"],
  ["[N-]=[N+]=Nc1ccc(NCCN2CCN(CCN3C[C@H](O)[C@@H](O)[C@H](O)[C@H]3CO)CC2)c([N+](=O)[O-])c1", "False"],
  ["COCCc1ccc(CCCN2C[C@H](O)[C@@H](O)[C@H](O)[C@H]2CO)cc1", "False"]
]}

Asked: Decide: is the reported value of pIC50 for COc1cc(NCCc2ccc(CCN3C[C@H](O)[C@@H](O)[C@H](O)[C@H]3CO)cc2)cc(C2=CCOCC2)c1 equal to or greater than 6?
Given back: True

Asked: // query: COc1cc(CN2CCCO2)cc(NCCCCCCN2C[C@H](O)[C@@H](O)[C@H](O)[C@H]2CO)c1
Given back: True
